Molecular target: T1, recombinant cynomolgous IL-23 (cynomolgous)
T1 chain 1: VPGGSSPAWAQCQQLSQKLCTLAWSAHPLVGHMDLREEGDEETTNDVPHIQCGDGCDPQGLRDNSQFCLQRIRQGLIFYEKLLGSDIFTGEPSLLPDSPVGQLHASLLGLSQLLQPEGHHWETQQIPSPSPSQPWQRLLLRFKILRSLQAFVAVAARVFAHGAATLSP
T1 chain 2: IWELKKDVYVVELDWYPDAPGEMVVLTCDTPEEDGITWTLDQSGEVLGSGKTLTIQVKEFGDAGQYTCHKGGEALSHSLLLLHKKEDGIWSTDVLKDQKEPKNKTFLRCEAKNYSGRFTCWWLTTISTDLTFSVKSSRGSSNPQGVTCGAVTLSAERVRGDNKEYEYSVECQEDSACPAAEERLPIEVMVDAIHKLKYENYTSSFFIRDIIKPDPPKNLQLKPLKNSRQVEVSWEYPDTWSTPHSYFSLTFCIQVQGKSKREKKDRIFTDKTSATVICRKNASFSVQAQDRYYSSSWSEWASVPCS
Assay: cell-based or functional assay

{"binder": "Antibody E (antibody, V domains shown) VH: QVQLVESGGGVVQPGRSLRLSCAASGFTFSSYGMHWVRQAPGKGLEWVAVIWYDGSNEYYADSVKGRFTISRDNSKNTLYLQMNSLRAEDTAVYYCARDRGYTSSWYPDAFDIWGQGTMVTVSS VL: QSVLTQPPSVSGAPGQRVTISCTGSSSNTGAGYDVHWYQQVPGTAPKLLIYGSGNRPSGVPDRFSGSKSGTSASLAITGLQAEDEADYYCQSYDSSLSGWVFGGGTRLTVL", "IC50 (pM), STAT-luciferase assay": 188}
